# measuredTarget: Mcl-1 protein (UniProtKB primary accession number: Q07820) (Homo sapiens, UniProt Q07820)
# Sequence (Q07820 whole entry): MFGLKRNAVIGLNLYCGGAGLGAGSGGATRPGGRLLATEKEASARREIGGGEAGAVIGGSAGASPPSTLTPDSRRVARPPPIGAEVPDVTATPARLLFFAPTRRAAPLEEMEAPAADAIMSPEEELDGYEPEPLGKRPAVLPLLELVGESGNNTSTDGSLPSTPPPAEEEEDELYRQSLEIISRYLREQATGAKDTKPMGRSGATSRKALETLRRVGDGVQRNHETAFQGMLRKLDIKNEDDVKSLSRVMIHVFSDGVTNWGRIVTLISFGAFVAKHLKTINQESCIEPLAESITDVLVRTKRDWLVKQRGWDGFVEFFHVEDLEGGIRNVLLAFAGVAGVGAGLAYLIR
# assayName: Inhibition of Mcl-1 by fluorescence polarisation, Method 1
# Assay type: binding
# measurementSetup: fluorescence polarisation test; Method 2 values are underlined in the patent (underlining not visible here); read-out: IC50 (M) Mcl-1 FP
Give IC50 for every item shown.
Supply the numeric figure in M, leaving out any unit text.

Problem: Fill blank: measured IC50 of the compound Cc1c(-c2c(-c3ccc(F)cc3)sc3ncnc(OC(Cc4ccccc4OCc4ccnc(-c5ccc(C(F)(F)F)nc5)n4)C(=O)O)c23)ccc(OCCN2CCN(C)CC2)c1Cl (stereo not drawn) is ____.
Result: 8.4e-09

Problem: Again, but for Cc1c(-c2c(-c3ccc(F)cc3)sc3ncnc(OC(Cc4ccccc4OCc4ccnc(-c5nccs5)n4)C(=O)O)c23)ccc(OCCN2CCN(C)CC2)c1Cl (stereo not drawn)
Result: 1.1e-08

Problem: Next entry: COc1cc(COc2ccccc2CC(Oc2ncnc3sc(-c4ccc(F)cc4)c(-c4ccc(OCCN5CCN(C)CC5)c(Cl)c4C)c23)C(=O)O)ccn1 (stereo not drawn)
Result: 1.6e-08

Problem: Query Cc1c(-c2c(-c3ccc(F)cc3)sc3ncnc(OC(Cc4ccccc4OCc4cccc(-c5ccco5)n4)C(=O)O)c23)ccc(OCCN2CCN(C)CC2)c1Cl (stereo not drawn) next
Result: 4.4e-08

Problem: What would you report for "COc1ncc(Br)c(COc2ccccc2C[C@@H](Oc2ncnc3sc(-c4ccc(F)cc4)c(-c4ccc(OCCN5CCN(C)CC5)c(Cl)c4C)c23)C(=O)O)n1" ?
Result: 2e-08

Problem: What do we get for "CCOCc1nccc(COc2ccccc2C[C@@H](Oc2ncnc3sc(-c4ccc(F)cc4)c(-c4ccc(OCCN5CCN(C)CC5)c(Cl)c4C)c23)C(=O)O)n1" ?
Result: 7.8e-09

Problem: Same thing, different compound: COc1ccccc1CC(Oc1ncnc2sc(-c3ccc(F)cc3)c(-c3ccc(OCCN4CCN(C)CC4)c(Cl)c3C)c12)C(=O)O (stereo not drawn)
Result: 8e-08

Problem: Moving on to Cc1c(-c2c(-c3ccco3)sc3ncnc(OC(Cc4ccccc4OCc4ccnc(N5CCOCC5)n4)C(=O)O)c23)ccc(OCCN2CCN(C)CC2)c1Cl (stereo not drawn)
Result: 4.2e-09

Problem: For Cc1c(-c2c(-c3ccco3)sc3ncnc(OC(Cc4ccccc4OCc4ccncn4)C(=O)O)c23)ccc(OCCN2CCN(C)CC2)c1Cl (stereo not drawn) then?
Result: 5.2e-09

Problem: Also need COCCOc1nccc(COc2ccccc2CC(Oc2ncnc3sc(-c4ccc(F)cc4)c(-c4ccc(OCCN5CCN(C)CC5)c(Cl)c4C)c23)C(=O)O)n1 (stereo not drawn) , thanks.
Result: 4.5e-09

Problem: Okay, and CCCn1nccc1COc1ccccc1CC(Oc1ncnc2sc(-c3ccc(F)o3)c(-c3ccc(OCCN4CCN(C)CC4)c(Cl)c3C)c12)C(=O)O (stereo not drawn) ?
Result: 2.8e-09

Problem: Then what about the compound COc1ccccc1CC(Oc1ncnc2sc(-c3ccc(F)o3)c(-c3ccc(OCCN(C)C)c(Cl)c3C)c12)C(=O)O (stereo not drawn) ?
Result: 6.6e-09
